ASSAY_INFO: dose response, DH231 delta cqsS, luminescence, dry powder (AID 651808)
EXPERIMENTAL_CONDITIONS: V. cholerae DH231 delta cqsS, luxCDABE luminescence, 6 h; at 80 µM; test 2; hits give high values
Records with an inconclusive call do not appear.
Class Condition met: max activity (light induction) at least -10%. Class Condition not met: max activity (light induction) below -10%.

Quick check, max activity (light induction) >= -10%? `Cn1nnnc1NCc1ccc(N2CCCC2)cc1`
Condition not met

# bool: max activity (light induction) of `O=C(Cc1ccccc1OC(F)(F)F)NC1CCCC1` >= -10%
Condition not met

Identify whether the reported max activity (light induction) of the following molecule is -10% or greater: `CCCn1nnnc1NCc1ccccc1Cl`
Condition not met

Next:
// inclusive: max activity (light induction) at least -10%? input: `O=C(Cc1ccc(-c2ccccc2)cc1)NC1CCOCC1`
Condition met

Hi team, for `COc1ccc(CC(=O)NC2CCCC2)cc1` , is the recorded max activity (light induction) at or above -10%?
Condition met

I'd appreciate it if you could say whether `O=C(Cc1ccc(-c2ccccc2)cc1)NC1CCCCC1` has max activity (light induction) at least equal to -10%.
Condition not met

Is max activity (light induction) for `CS(=O)(=O)c1ccc(CC(=O)NC2CCCC2)cc1` at or above -10%?
Condition not met

Answer whether max activity (light induction) of `CCn1nnnc1NCc1ccc(N2CCCC2)cc1` is greater than or equal to -10%.
Condition not met

max activity (light induction) >= -10% for `O=C(Cc1ccccc1C(F)(F)F)NC1CCCC1` ?
Condition met

Answer whether max activity (light induction) of `O=C(Cc1ccccc1F)NC1CCCC1` is greater than or equal to -10%.
Condition met

FYI, the data here is from PubChem BioAssay AID651808.
